Provenance of the data: patent US20150344540A1

assay: Pharmacokinetics in mini-pigs after i.v. administration; details: female, Göttingen, minipig, plasma, iv, 5 nmol/kg
Where no end group is shown, it is not given here.
outcome.measure: Vd

HAEGTFTSDVSSYLEGEAVKEFIAWLVEKVKEFL-NH2 [Compound 67] | 0.056 L/kg

We now examine a further substance.
Inquiry: Value lookup for Vd; key = HAEGTFTSDVSSYLEGQAAKEFIAWLVEKVKEHL-NH2 [Compound 107]
Reply text: 0.0615 L/kg

----------
target: human GLP-1 receptor (human)
outcome.measure: CRE luciferase EC50, 1% HSA (nM)
Numbers only, in nM.

Would you please look over these solved cases?
[Aib2,Lys17,Ala18,Arg20,Glu21,Leu27,Glu28,Lys29]-Glucagonyl-(1-29)-Aib-Lys-Glu-Phe-Leu amide (peptide) | 0.153
[Lys17,Ala18,Arg20,Glu21,Leu27,Glu28,Lys29]-Glucagonyl-(1-29)-Aib-Lys-Glu-Phe-Leu amide (peptide) | 0.198
[Glu15,Glu16,Lys17,Lys18,Lys20,Glu21,Ile23,Ala24,Leu27,Glu28,Lys29]-Glucagonyl-(1-29)-Aib-Lys-Glu-Phe-Leu amide (peptide) | 0.588
[Aib2,Gly16,Lys17,Arg20,Glu21,Leu27,Glu28,Lys29]-Glucagonyl-(1-29)-Aib-Lys-Glu-Phe-Leu amide (peptide) | 0.297
[Aib2,Gly16,Lys17,Ala18,Arg20,Glu21,Leu27,Glu28,Lys29]-Glucagonyl-(1-29)-Aib-Lys-Glu-Phe-Leu amide (peptide) | 0.908
[Glu15,Glu16,Gln17,Ala18,Lys20,Glu21,Ile23,Ala24,Leu27,Glu28,Lys29]-Glucagonyl-(1-29)-Aib-Lys-Glu-Phe-Leu amide (peptide) | 0.061
[Aib2,His3,Glu15,Glu16,Glu17,Ala18,Lys20,Glu21,Ile23,Ala24,Leu27,Glu28,Lys29]-Glucagonyl-(1-29)-Aib-Lys-Glu-Phe-Leu amide (peptide) | 0.049

Inquiry: Value lookup for CRE luciferase EC50, 1% HSA; key = [Glu15,Glu16,Lys17,Ala18,Lys20,Glu21,Ile23,Ala24,Leu27,Glu28,Lys29]-Glucagonyl-(1-29)-Aib-Lys-Glu-Phe-Leu amide (peptide)
Reply text: 0.044

----------
assay: in vivo; details: female, Göttingen, minipig, in vivo, iv, 5 nmol/kg
Where no end group is shown, it is not given here.
outcome.measure: C0 (nM)
One number for each entry, in nM.

HGEGTFTSDVSSYLEGEAVKEFIAWLVEKVKEFL-NH2 [Compound 76] | 136

We now examine a further substance.
Inquiry: Value lookup for C0; key = HGEGTFTSDVSSYLEGEAVKEFIAWLVEKVKEHL-NH2 [Compound 78]
Reply text: 58.4
